Parameter: Vd. Scope: all listed entries.
- test description: Volume of distribution at steady state in rat
- Type: ADME, organism-based
- settings: in vivo, read-out: Vdss

>  <compound structure>
Cc1ncn2c1Cn1ncnc1-c1cc(Br)ccc1-2

>  <units>
L/kg

>  <Vd>
0.4

$$$$
>  <compound structure>
Cc1ncn2c1Cn1ncnc1-c1cc(Cl)ccc1-2

>  <units>
L/kg

>  <Vd>
1.9

$$$$
>  <compound structure>
FC(F)c1ncn2c1Cn1ncnc1-c1cc(Br)ccc1-2

>  <units>
L/kg

>  <Vd>
1.2

$$$$
>  <compound structure>
Clc1ccc2c(c1)-c1ncnn1Cc1c(Cl)ncn1-2

>  <units>
L/kg

>  <Vd>
0.5

$$$$
>  <compound structure>
Clc1ncn2c1Cn1ncnc1-c1cc(Br)ccc1-2

>  <units>
L/kg

>  <Vd>
1.3

$$$$
>  <compound structure>
FC(F)c1ncn2c1Cn1ncnc1-c1cc(Cl)ccc1-2

>  <units>
L/kg

>  <Vd>
0.3

$$$$
